meta.source: patent US20060240494A1

target: recombinant E. coli DnaK (Escherichia coli, UniProt P0A6Y8); construct: purchased StressGen, Victoria, Canada; assay: EnzChek ATPase assay, recombinant DnaK; type: biochemical; conditions: 50 molar equivalents of peptide; 22° C., 30 min; UV absorbance at 360 nm
Sequence (P0A6Y8 whole entry): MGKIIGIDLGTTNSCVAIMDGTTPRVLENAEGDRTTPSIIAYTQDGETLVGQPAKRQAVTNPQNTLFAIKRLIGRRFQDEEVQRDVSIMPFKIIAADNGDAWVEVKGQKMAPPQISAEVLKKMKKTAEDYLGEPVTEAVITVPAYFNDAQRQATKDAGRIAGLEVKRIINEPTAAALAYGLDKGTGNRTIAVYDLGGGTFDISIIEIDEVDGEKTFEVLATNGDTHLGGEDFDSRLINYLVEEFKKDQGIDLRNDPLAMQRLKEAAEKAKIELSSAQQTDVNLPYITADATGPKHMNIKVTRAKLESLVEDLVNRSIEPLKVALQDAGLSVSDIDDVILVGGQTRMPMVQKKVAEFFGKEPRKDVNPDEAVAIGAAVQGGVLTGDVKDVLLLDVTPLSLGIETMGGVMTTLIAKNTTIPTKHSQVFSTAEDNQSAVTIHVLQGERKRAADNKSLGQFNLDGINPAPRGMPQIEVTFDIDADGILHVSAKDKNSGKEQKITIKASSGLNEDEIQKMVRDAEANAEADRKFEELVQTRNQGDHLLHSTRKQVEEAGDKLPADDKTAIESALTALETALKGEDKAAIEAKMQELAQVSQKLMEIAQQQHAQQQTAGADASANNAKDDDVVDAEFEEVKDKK
value kind: effect on ATPase activity of recombinant DnaK

substance="Cecropin A: membrane-active antimicrobial peptide; purchased from Bachem (KWKLFKKIEKVGQNIRDGIIKAGPAVAVVGQATQIAK)" assay_result="did not influence"
substance="Magainin 2: antibacterial peptide that kills bacteria by disintegrating the membrane; from Bachem (GIGKFLHSAKKFGKAFVGEIMNS)" assay_result="did not influence"

---

molecular target: E. coli DnaK fragment aa583-615 (D-E helix hinge) (Escherichia coli, UniProt P0A6Y8); assay: Fluorescence polarization with synthetic DnaK fragment aa583-615; assay type: binding
Sequence (P0A6Y8 584-616): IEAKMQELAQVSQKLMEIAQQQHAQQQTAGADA
No end group written: not given here.
value kind: pKd
API: returns pKd as number; meaning -log10 of concentration in mol/L.

So the reported pKd for VDKGSYLPRPTPPRPIYNRN [pyrrhocoricin] , on E. coli DnaK fragment aa583-615 (D-E helix hinge) (Escherichia coli, UniProt P0A6Y8), turned out to be 4.29
